So I've got a bunch of compounds here, and I need their EC50 values.
Target: Neuropeptide Y receptor type 4 (Homo sapiens, UniProt P50391)
Sequence (P50391 whole entry): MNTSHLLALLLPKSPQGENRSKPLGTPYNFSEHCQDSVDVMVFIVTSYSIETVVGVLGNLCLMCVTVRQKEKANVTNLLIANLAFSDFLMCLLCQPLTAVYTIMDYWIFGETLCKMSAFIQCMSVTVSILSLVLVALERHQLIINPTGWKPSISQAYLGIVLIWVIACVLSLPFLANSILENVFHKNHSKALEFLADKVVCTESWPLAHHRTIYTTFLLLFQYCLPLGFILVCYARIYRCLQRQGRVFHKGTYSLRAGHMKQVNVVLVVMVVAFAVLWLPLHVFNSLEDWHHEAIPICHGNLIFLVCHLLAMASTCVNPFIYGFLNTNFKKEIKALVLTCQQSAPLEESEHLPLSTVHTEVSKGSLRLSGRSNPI
Test: Agonist activity at human NPY4 receptor in CHO cells by inhibition of forskolin-stimulated cAMP synthesis
Positions of bridges follow the written chain, without caps; N, C: chain ends. Non-standard residues stand in square brackets, D forms with d. Residues, ends and D or L forms follow the SMILES beside them. Chains are numbered I, II in the order given. Nva = CCC[C@H](N)C(=O)O
Your answer should be a number followed by the unit of measure.

| compound | EC50 |
| --- | --- |
| CCC[C@H](NC(=O)[C@H](CCCN=C(N)N)NC(=O)[C@H](Cc1c[nH]c2ccccc12)NC(=O)[C@H](Cc1ccc(O)cc1)NC(=O)[C@H](CCCN=C(N)N)NC(=O)[C@H](CCC)NC(=O)[C@H](CCCN=C(N)N)NC(=O)[C@@H](N)Cc1c[nH]c2ccccc12)C(=O)N[C@@H](CCCN=C(N)N)C(=O)N[C@@H](Cc1ccc(O)cc1)C(N)=O (H-WR[Nva]RYWR[Nva]RY-NH2) | 290 nM |
| CCC[C@H](NC(=O)[C@H](CCCNC(=N)N)NC(=O)[C@H](Cc1c[nH]c2ccccc12)NC(=O)[C@@H](N)CSSC[C@H](N)C(=O)N[C@@H](Cc1c[nH]c2ccccc12)C(=O)N[C@@H](CCCNC(=N)N)C(=O)N[C@@H](CCC)C(=O)N[C@@H](CCCNC(=N)N)C(=O)N[C@@H](Cc1ccc(O)cc1)C(N)=O)C(=O)N[C@@H](CCCNC(=N)N)C(=O)N[C@@H](Cc1ccc(O)cc1)C(N)=O (I: H-CWR[Nva]RY-NH2 / II: H-CWR[Nva]RY-NH2; disulfide I:1-II:1) | 570 nM |

Here is the next item to consider.
Q: Using the record for CCC[C@H](NC(=O)[C@H](CCCN=C(N)N)NC(=O)[C@H](Cc1c[nH]c2ccccc12)NC(=O)[C@H](Cc1ccc(O)cc1)NC(=O)[C@H](CCCN=C(N)N)NC(=O)[C@H](CCC)NC(=O)[C@H](CCCN=C(N)N)NC(=O)[C@H](Cc1c[nH]c2ccccc12)NC(=O)[C@H](Cc1ccc(O)cc1)NC(=O)[C@H](CCCN=C(N)N)NC(=O)[C@H](CCC)NC(=O)[C@H](CCCN=C(N)N)NC(=O)[C@@H](N)Cc1c[nH]c2ccccc12)C(=O)N[C@@H](CCCN=C(N)N)C(=O)N[C@@H](Cc1ccc(O)cc1)C(N)=O (H-WR[Nva]RYWR[Nva]RYWR[Nva]RY-NH2) , state its measured EC50.
A: 230 nM
